- Tested on: SB.msgc-1
- Test: AC50 for growth inhibition (viability) (log10 M); higher = less potent
- Measurement Parameters: SB.msgc-1 (sporadic gastric cancer)
Counter-ions that a name gives are not always drawn.
Classify: Met when AC50 for growth inhibition (log10 M) is strictly less than -5; Not met when AC50 for growth inhibition (log10 M) is not.

CNC(=O)c1ccccc1Sc1ccc2c(/C=C/c3ccccn3)n[nH]c2c1 :: Not met
Nc1ncnc2c1nc(Cl)n2[C@@H]1O[C@H](CO)[C@@H](O)[C@H]1O :: Not met
CNC1[C@@H](O)C(O[C@@H]2C(O)C(O[C@H]3O[C@H]([C@@H](C)NC)CC[C@H]3N)[C@@H](N)C[C@H]2N)OC[C@]1(C)O (stereo partly drawn) [Gentamycin sulfate] :: Not met

Please determine if `COc1ccccc1[C@H](c1cccc2ccccc12)[C@@](C)(C#N)C(=O)N1CCC(c2cccc(C(F)(F)F)c2)CC1` is below -5 in terms of AC50 for growth inhibition (log10 M).
Met

Check if AC50 for growth inhibition (log10 M) falls below -5 for `CC(C)(C(=O)NCC(F)(F)C(F)(F)F)C(=O)N[C@@H]1C(=O)Nc2ccccc2-c2ccccc21` .
Met

Determine whether this compound shows AC50 for growth inhibition (log10 M) lower than -5 (ties excluded): `C[S+](=O)([O-])c1cccc(CNc2nc(Nc3ccc4c(c3)CCC(=O)N4)ncc2C(F)(F)F)c1`
Not met

* * *

- Tested on: SB.msgc-1
- Test: area under the dose-response curve of % viability (trapezoidal, 11 doses) (% viability x log10 concentration); higher = less cytotoxic
- Measurement Parameters: SB.msgc-1 (sporadic gastric cancer)
Parameter: area under the dose-response curve
Numbers only.

As a guide, the following entries are already answered.
COc1cc([C@@H]2c3cc4c(cc3[C@H](O)[C@H]3COC(=O)[C@H]23)OCO4)cc(OC)c1OC [Picropodophyllin] (top concentration 46.0829 µM) :: 246
Cc1ccc(NC(=O)Nc2cc(C(F)(F)F)ccc2F)cc1Nc1ccc2c(c1)NC(=O)/C2=C\c1ccc[nH]1 [GNF-5837] (top concentration 46.0829 µM) :: 455
CCOc1cc2c(c(F)c1OCC)C(=N)N(CC(=O)c1cc(N3CCOCC3)c(OC)c(C(C)(C)C)c1)C2 [E5555] (top concentration 46.0829 µM) :: 471

Next up:
Please report the recorded area under the dose-response curve for CC(=O)NC(C)c1ccc(Oc2ccc(OC(C)C)cc2)cc1 (centres undefined) [ACC1 BMS] (top concentration 46.0829 µM) .
539

* * *

- Tested on: SB.mhdgc-1
- Test: area under the dose-response curve of % viability (trapezoidal, 11 doses) (% viability x log10 concentration); higher = less cytotoxic
- Measurement Parameters: SB.mhdgc-1 (hereditary c.1380delA CDH1 gastric cancer)
Parameter: area under the dose-response curve
Give bare numbers.

Worked cases, answers included:
CC(C)(C)/[N+]([O-])=C/c1ccc([S+](=O)([O-])[O][Na])cc1[S+](=O)([O-])[O][Na] [Disufenton sodium] (top concentration 46.0829 µM) :: 532
c1ccc2c(CN3CCNCC3)cccc2c1 [NMP] (top concentration 46.0829 µM) :: 520
N#Cc1ccc(C(c2ccc(C#N)cc2)n2cncn2)cc1 [Letrozole] (top concentration 46.0829 µM) :: 501
Cc1cc(NC(=O)Nc2ccc(N(C)C)cc2)c2cc(F)cc(F)c2n1 (top concentration 46.0829 µM) :: 495
O=C(/C=C/C=C/c1ccc2c(c1)OCO2)N1CCCCC1 [Piperine] (top concentration 46.0829 µM) :: 535

Please give area under the dose-response curve, item by item, for the list that follows.
1. Nc1nccc(-c2ccc3noc(-c4ccc(Cl)cc4)c3c2)n1 [Pim 1 inhibitor 2] (top concentration 46.0829 µM)
2. Nc1ccccc1NC(=O)c1ccc(CNC(=O)OCc2cccnc2)cc1 [Entinostat] (top concentration 46.0829 µM)
3. CN1CCN(c2cc(C(=O)Nc3ccc4c(c3)-c3c(c(C(N)=O)nn3-c3ccc(F)cc3)CC4)c(Cl)cn2)CC1 [PHA-408] (top concentration 46.0829 µM)
4. CC(C)n1nc(-c2cc3cc(O)ccc3[nH]2)c2c(N)ncnc21 [PP-242] (top concentration 46.0829 µM)
5. COCCCN1CCC(NC(=O)c2cc(Cl)c(N)c3c2OCC3)CC1 [Prucalopride] (top concentration 46.0829 µM)

490
506
441
343
517

Batch request: area under the dose-response curve for each of the following compounds.
1. CNC(=O)c1cc(COc2nnc(Nc3ccc(Cl)cc3)c3ccoc23)ccn1 [Telatinib] (top concentration 46.0829 µM)
2. CNc1nc(Nc2ccc(C(=O)N3CCOCC3)cc2OC)ncc1Cl [Hg-10-102-01] (top concentration 46.0829 µM)
3. C1CCN2C[C@H]3C[C@H](\C=C/4CCCN[C@@H]34)[C@H]2C1 [Aloperine] (top concentration 46.0829 µM)
4. CC(C)c1cccc(C(C)C)c1O [Propofol] (top concentration 46.0829 µM)
5. COc1ccc(C(=O)c2c(C)n(CCN3CCOCC3)c3ccccc23)cc1 [Pravadoline] (top concentration 46.0829 µM)
6. CNC(=O)c1ccccc1Sc1ccc2c(/C=C/c3ccccn3)n[nH]c2c1 [Axitinib] (top concentration 46.0829 µM)
7. CC(O)(C[S+](=O)([O-])c1ccc(F)cc1)C(=O)Nc1ccc(C#N)c(C(F)(F)F)c1 (configuration not stated) [Bicalutamide] (top concentration 46.0829 µM)
8. CC1=C(/C=C/C(C)=C/C=C/C(C)=C/C=C/C=C(C)/C=C/C=C(C)/C=C/C2=C(C)CCCC2(C)C)C(C)(C)CCC1 [beta-Carotene] (top concentration 46.0829 µM)

564
579
470
504
563
505
314
516

* * *

- Test system: SB.msgc-1
- Test: viability at highest tested concentration (MAXR) relative to DMSO; higher = less cytotoxic
- Measurement Parameters: SB.msgc-1 (sporadic gastric cancer)
Where a name gives a salt, the structure may show the parent alone.
I'd appreciate it if you could supply viability values for the items below.
Numbers only, in %.

CCOC(=O)C(C)(C)Oc1ccc(Cl)cc1 [Clofibrate] (top concentration 46.0829 µM) :: 94.5
COc1cc2ncnc(Nc3ccc(F)c(Cl)c3)c2cc1OCCCN1CCOCC1 [Gefitinib] (top concentration 92.1659 µM) :: 16
Cc1ccc(NC(=O)Nc2cc(C(F)(F)F)ccc2F)cc1Nc1ccc2c(c1)NC(=O)/C2=C\c1ccc[nH]1 [GNF-5837] (top concentration 46.0829 µM) :: 6.76
Clc1ccc2c(N3CCN(CCCN4CCN(c5ccnc6cc(Cl)ccc56)CC4)CC3)ccnc2c1 [Piperaquine] (top concentration 23.0415 µM) :: 97.8

For the compound COc1cc2nc(N3CCN(C(=O)C4CCCO4)CC3)nc(N)c2cc1OC (stereo not given) [Terazosin hydrochloride] (top concentration 46.0829 µM) , what viability is on record?
104

* * *

Can you tell me area under the dose-response curve for the items I'm about to list?
- Test system: SB.msgc-1
- Test: area under the dose-response curve of % viability (trapezoidal, 11 doses) (% viability x log10 concentration); higher = less cytotoxic
- Measurement Parameters: SB.msgc-1 (sporadic gastric cancer)
Where a name gives a salt, the structure may show the parent alone.

The examples below pair each entry with its known result.
CN(C)[C@H]\1[C@@H]2[C@@H](O)[C@@H]\3C(=C)C4=C(C(=CC=C4)O)C(=O)C3=C(\O)[C@@]2(O)C(=O)\C(=C1O)C(N)=O [Methacycline hydrochloride] (top concentration 46.0829 µM) :: 501
CC1CCN(c2cc(N3CCN(C)CC3)ccc2NC(=O)c2cc(C#N)c[nH]2)CC1 [c-FMS inhibitor] (top concentration 46.0829 µM) :: 515
COC1=CC(=CC=C1)C2=CC=C(NC(=O)/C3=C(/CCC3)C(O)=O)C(=C2)F [Vidofludimus] (top concentration 46.0829 µM) :: 485

Now turn to the next compound.
Quick one: area under the dose-response curve for C[C@@H](CN1CC(=O)NC(=O)C1)N1CC(=O)NC(=O)C1 [Dexrazoxane hydrochloride] (top concentration 46.0829 µM) ?
491

* * *

- Tested on: SB.mhdgc-1
- Test: AC50 for growth inhibition (viability) (log10 M); higher = less potent
- Measurement Parameters: SB.mhdgc-1 (hereditary c.1380delA CDH1 gastric cancer)
Where a name gives a salt, the structure may show the parent alone.
Parameter: AC50 for growth inhibition (log10 M)
One number for each entry.

S=P(N1CC1)(N1CC1)N1CC1 :: -5.48
COc1ccc(Cc2nccc3cc(OC)c(OC)cc23)cc1OC [Papaverine hydrochloride] :: -6.88
CNC(=O)c1nn(C)c2c1C(C)(C)Cc1cnc(Nc3ccc(N4CCN(C)CC4)cc3)nc1-2 :: -5.93
O=C(Cc1ccc(-c2ccc(OCCN3CCOCC3)cc2)cn1)NCc1ccccc1 :: -8.18
CCc1ccc(C(=O)Nc2cc(CN3CCN(C)CC3)cc(C(F)(F)F)c2)cc1C#Cc1cnc2ccnn2c1 :: -5.13
CC(C)CN(C[C@@H](O)[C@H](Cc1ccccc1)NC(=O)O[C@H]1CCOC1)[S+](=O)([O-])c1ccc(N)cc1 :: -6.03
NC1(Cc2ccc(Cl)cc2)CCN(c2ncnc3[nH]ccc23)CC1 :: -4.83
Cc1cc(-c2ncc(CC(=O)Nc3ccc(-c4cnccn4)cn3)cc2C)ccn1 :: -4.88
CC[C@H](NC(=O)[C@H](C)NC)C(=O)N1C[C@@H](O)C[C@H]1Cc1c(-c2[nH]c3cc(F)ccc3c2C[C@@H]2C[C@H](O)CN2C(=O)[C@H](CC)NC(=O)[C@H](C)NC)[nH]c2cc(F)ccc12 :: -6.23
O=C1[C@H](Cc2ccc(O)cc2)N2C(=O)CCN(C(=O)NCc3ccccc3)[C@H]2CN1Cc1cccc2ccccc12 :: -4.83

Quick batch: AC50 for growth inhibition (log10 M) for everything below.
1. Cc1ccc(C(=O)Nc2cccc(C(F)(F)F)c2)cc1Nc1nc(-c2cccnc2)nc2c1cnn2C
2. CC1(C)C(N(O)C(=O)Nc2ccc(Cl)cc2)N(c2ccc(Cl)cc2)C(=O)N1CC(=O)N/N=C/C=C/c1ccc([N+](=O)[O-])o1 (stereo unspecified)
3. CN1CCN(c2ncc(-c3cc(Cl)cc(Cl)c3Cl)c(N)n2)CC1

1. -4.83
2. -5.08
3. -4.63

Can you give me AC50 for growth inhibition (log10 M) for all of these, one by one?
1. N#C/N=C(\NCCCCCCOc1ccc(Cl)cc1)Nc1ccncc1
2. ClC1=CC\2=C(NC(=O)\C(=C2N[C@@H]3CN4CCC3CC4)C5=NC6=C([NH]5)C=CC=C6)C=C1
3. CNC1CCC(N(Cc2cccc(-c3ccncc3)c2)C(=O)c2sc3ccccc3c2Cl)CC1 (stereo unspecified)
4. O=C1NC(=O)/C(=C/c2ccc3nccnc3c2)S1
5. N=C(NCCCCCCNC(=N)NC(=N)Nc1ccc(Cl)cc1)NC(=N)Nc1ccc(Cl)cc1
6. CC(C)C[C@H](NC(=O)[C@H](Cc1ccccc1)NC(=O)c1cnccn1)B(O)O
7. Cc1ccc([N+](=O)[O-])cc1[S+](=O)([O-])N(C)/N=C/c1cnc2ccc(Br)cn12
8. CC(C)(C)c1cc(C=C(C#N)C#N)cc(Br)c1O

1: -8.08; 2: -6.08; 3: -4.93; 4: -4.84; 5: -5.28; 6: -7.78; 7: -8.03; 8: -5.03
